System: Streptococcus pneumoniae
Experiment: Antibacterial activity against Streptococcus pneumoniae ATCC 49619 by CLSI M07-A8 method
Format: functional
recorded.endpoint: MIC (µg/mL)
Numeric answer only, unit µg/mL assumed.

Enter MIC (test system Streptococcus pneumoniae) for `Cc1ncc2c(c1O)C(=O)C1=C(O)[C@]3(O)C(=O)C(C(N)=O)=C(O)[C@@H](N(C)C)[C@@H]3C[C@@H]1C2.Cl.Cl` 1

###

System: Staphylococcus aureus
Assay: Antibacterial activity against tetracycline-resistant Staphylococcus aureus isolate 158 harboring tet(K) gene by CLSI M07-A8 method
Format: functional
Hi! Could you tag entries with MIC below 1 µg/mL as t, and those at or above as f? Much appreciated.

# check: MIC < 1 µg/mL for `CC(C)CNc1nc(Cl)c2c(c1O)C(=O)C1=C(O)[C@]3(O)C(=O)C(C(N)=O)=C(O)[C@@H](N(C)C)[C@@H]3C[C@@H]1C2.Cl.Cl.Cl` t

Quick check: does `CN(C)[C@@H]1C(O)=C(C(N)=O)C(=O)[C@@]2(O)C(O)=C3C(=O)c4c(O)c(N)nc(Cl)c4C[C@H]3C[C@@H]12` have MIC under 1 µg/mL? f

Below 1 µg/mL on MIC? Entry `CCCNc1nc(Cl)c2c(c1O)C(=O)C1=C(O)[C@]3(O)C(=O)C(C(N)=O)=C(O)[C@@H](N(C)C)[C@@H]3C[C@@H]1C2.Cl.Cl.Cl` t

I wonder whether CN(C)c1cc(CNCC(C)(C)C)c(O)c2c1C[C@H]1C[C@H]3[C@H](N(C)C)C(O)=C(C(N)=O)C(=O)[C@@]3(O)C(O)=C1C2=O [OMADACYCLINE] has MIC below 1 µg/mL. Can you tell? t

Check if MIC falls below 1 µg/mL for `CN(C)[C@@H]1C(O)=C(C(N)=O)C(=O)[C@@]2(O)C(O)=C3C(=O)c4c(O)cnc(F)c4C[C@H]3C[C@@H]12.Cl` . f

###

Test system: Streptococcus pneumoniae
Assay: Antibacterial activity against Streptococcus pneumoniae ATCC 49619 by CLSI M07-A8 method
Type: functional
The label T is reserved for MIC strictly under 0.5 µg/mL; F covers values equal to or above it.

CCCNc1nc(Cl)c2c(c1O)C(=O)C1=C(O)[C@]3(O)C(=O)C(C(N)=O)=C(O)[C@@H](N(C)C)[C@@H]3C[C@@H]1C2.Cl.Cl.Cl; T
CC(C)CNc1nc(Cl)c2c(c1O)C(=O)C1=C(O)[C@]3(O)C(=O)C(C(N)=O)=C(O)[C@@H](N(C)C)[C@@H]3C[C@@H]1C2.Cl.Cl.Cl; F

Given the entry `CCCNc1nc(F)c2c(c1O)C(=O)C1=C(O)[C@]3(O)C(=O)C(C(N)=O)=C(O)[C@@H](N(C)C)[C@@H]3C[C@@H]1C2.Cl.Cl` , would its reported MIC be below 0.5 µg/mL? F

Is 0.5 µg/mL strictly greater than the compound's reported MIC? compound: `CN(C)[C@@H]1C(O)=C(C(N)=O)C(=O)[C@@]2(O)C(O)=C3C(=O)c4c(O)cnc(-c5ccccc5)c4C[C@H]3C[C@@H]12.Cl.Cl` T

Dear colleague, could you confirm whether MIC of `CN(C)[C@@H]1C(O)=C(C(N)=O)C(=O)[C@@]2(O)C(O)=C3C(=O)c4c(O)c(N)nc(Cl)c4C[C@H]3C[C@@H]12` falls below 0.5 µg/mL? Thanks. T

Quick check: does `CCCc1nc(Cl)c2c(c1O)C(=O)C1=C(O)[C@]3(O)C(=O)C(C(N)=O)=C(O)[C@@H](N(C)C)[C@@H]3C[C@@H]1C2.Cl` have MIC under 0.5 µg/mL? F

In plain terms, does `CN(C)[C@@H]1C(O)=C(C(N)=O)C(=O)[C@@]2(O)C(O)=C3C(=O)c4c(O)c(N)nc(F)c4C[C@H]3C[C@@H]12.Cl.Cl` come in under 0.5 µg/mL for MIC? T

###

Tested on: Klebsiella pneumoniae
Assay: Antibacterial activity against Klebsiella pneumoniae ATCC 13883 by CLSI M07-A8 method
Assay type: functional
# key: entry, value: log10 of MIC
The figures below represent log10 of MIC, where MIC is stated in µg/mL.

Illustrative cases are given below, each with its answer.
CN(C)c1ncc(O)c2c1C[C@H]1C[C@H]3[C@H](N(C)C)C(O)=C(C(N)=O)C(=O)[C@@]3(O)C(O)=C1C2=O.Cl.Cl; -0.60
CCCc1nc(N(C)C)c2c(c1O)C(=O)C1=C(O)[C@]3(O)C(=O)C(C(N)=O)=C(O)[C@@H](N(C)C)[C@@H]3C[C@@H]1C2.Cl.Cl; 1.20
Cc1nc(Cl)c2c(c1O)C(=O)C1=C(O)[C@]3(O)C(=O)C(C(N)=O)=C(O)[C@@H](N(C)C)[C@@H]3C[C@@H]1C2.Cl; 0.90
CN(C)[C@@H]1C(O)=C(C(N)=O)C(=O)[C@@]2(O)C(O)=C3C(=O)c4c(O)c(N)nc(Cl)c4C[C@H]3C[C@@H]12; -0.30
CCCNc1nc(Cl)c2c(c1O)C(=O)C1=C(O)[C@]3(O)C(=O)C(C(N)=O)=C(O)[C@@H](N(C)C)[C@@H]3C[C@@H]1C2.Cl.Cl.Cl; 0.90

Give the reported log10 of MIC for this compound. `CN(C)[C@@H]1C(O)=C(C(N)=O)C(=O)[C@@]2(O)C(O)=C3C(=O)c4c(O)cnc(-c5ccccc5)c4C[C@H]3C[C@@H]12.Cl.Cl` 0.30

Look up and state reported log10 of MIC for `CN(C)[C@@H]1C(O)=C(C(N)=O)C(=O)[C@@]2(O)C(O)=C3C(=O)c4c(O)cncc4C[C@H]3C[C@@H]12.Cl.Cl` 0.00

Answer with the recorded log10 of MIC of `CN(C)[C@@H]1C(O)=C(C(N)=O)C(=O)[C@@]2(O)C(O)=C3C(=O)c4c(O)cnc(Cl)c4C[C@H]3C[C@@H]12.Cl` only. 0.60

Please list log10 of MIC recorded for the compound `CN(C)CC(C)(C)CNc1nc(F)c2c(c1O)C(=O)C1=C(O)[C@]3(O)C(=O)C(C(N)=O)=C(O)[C@@H](N(C)C)[C@@H]3C[C@@H]1C2.Cl` 0.30

Quickly give me recorded log10 of MIC for `Cc1ncc2c(c1O)C(=O)C1=C(O)[C@]3(O)C(=O)C(C(N)=O)=C(O)[C@@H](N(C)C)[C@@H]3C[C@@H]1C2.Cl.Cl` 0.90

###

Tested on: Streptococcus pneumoniae
Assay: Antibacterial activity against tetracycline-resistant Streptococcus pneumoniae isolate 160 harboring tet(M) gene by CLSI M07-A8 method
Assay type: functional
MIC values, listed per item
The answer is to be given in µg/mL; state only the numeric part.

Sample answers from the record:
CCNc1nc(Cl)c2c(c1O)C(=O)C1=C(O)[C@]3(O)C(=O)C(C(N)=O)=C(O)[C@@H](N(C)C)[C@@H]3C[C@@H]1C2.Cl.Cl.Cl; 4
CCCc1nc(Cl)c2c(c1O)C(=O)C1=C(O)[C@]3(O)C(=O)C(C(N)=O)=C(O)[C@@H](N(C)C)[C@@H]3C[C@@H]1C2.Cl; 4
CC(C)OCCNc1nc(Cl)c2c(c1O)C(=O)C1=C(O)[C@]3(O)C(=O)C(C(N)=O)=C(O)[C@@H](N(C)C)[C@@H]3C[C@@H]1C2.Cl.Cl.Cl; 4
CN(C)CCCNc1nc(Cl)c2c(c1O)C(=O)C1=C(O)[C@]3(O)C(=O)C(C(N)=O)=C(O)[C@@H](N(C)C)[C@@H]3C[C@@H]1C2.Cl; 4
Cc1nc(Cl)c2c(c1O)C(=O)C1=C(O)[C@]3(O)C(=O)C(C(N)=O)=C(O)[C@@H](N(C)C)[C@@H]3C[C@@H]1C2.Cl; 8

State its MIC: `CN(C)[C@@H]1C(O)=C(C(N)=O)C(=O)[C@@]2(O)C(O)=C3C(=O)c4c(O)c(NC(=O)CNC(C)(C)C)nc(Cl)c4C[C@H]3C[C@@H]12.Cl.Cl.Cl` 16

Using known records, supply MIC for `CN(C)c1nc(NC(=O)CNC(C)(C)C)c(O)c2c1C[C@H]1C[C@H]3[C@H](N(C)C)C(O)=C(C(N)=O)C(=O)[C@@]3(O)C(O)=C1C2=O.Cl` 4

Output MIC of `CC(C)Nc1nc(Cl)c2c(c1O)C(=O)C1=C(O)[C@]3(O)C(=O)C(C(N)=O)=C(O)[C@@H](N(C)C)[C@@H]3C[C@@H]1C2.Cl.Cl.Cl` 16

Tell us which MIC value is on record for `CCCc1nc(N(C)C)c2c(c1O)C(=O)C1=C(O)[C@]3(O)C(=O)C(C(N)=O)=C(O)[C@@H](N(C)C)[C@@H]3C[C@@H]1C2.Cl.Cl` 2

Identify MIC associated with the molecule `CNc1nc(Cl)c2c(c1O)C(=O)C1=C(O)[C@]3(O)C(=O)C(C(N)=O)=C(O)[C@@H](N(C)C)[C@@H]3C[C@@H]1C2.Cl.Cl.Cl` 4

Provide one value: measured MIC of `CC(C)CCNc1nc(Cl)c2c(c1O)C(=O)C1=C(O)[C@]3(O)C(=O)C(C(N)=O)=C(O)[C@@H](N(C)C)[C@@H]3C[C@@H]1C2.Cl.Cl.Cl` 32

Write down MIC measured for item `CN(C)[C@@H]1C(O)=C(C(N)=O)C(=O)[C@@]2(O)C(O)=C3C(=O)c4c(O)c(N)nc(Cl)c4C[C@H]3C[C@@H]12` 4

Respond only with MIC recorded for `COc1ncc(O)c2c1C[C@H]1C[C@H]3[C@H](N(C)C)C(O)=C(C(N)=O)C(=O)[C@@]3(O)C(O)=C1C2=O.Cl.Cl` 16

Tell us which MIC value is on record for `CCCNc1nc(Cl)c2c(c1O)C(=O)C1=C(O)[C@]3(O)C(=O)C(C(N)=O)=C(O)[C@@H](N(C)C)[C@@H]3C[C@@H]1C2.Cl.Cl.Cl` 4

Read the entry `COCCNc1nc(Cl)c2c(c1O)C(=O)C1=C(O)[C@]3(O)C(=O)C(C(N)=O)=C(O)[C@@H](N(C)C)[C@@H]3C[C@@H]1C2.Cl.Cl.Cl` and write its reported MIC. 4
